applied conditions: in n-butanol, 318.15 K
parameter: solubility (mole fraction)

smiles data: CC(=O)[C@H]1CC[C@H]2[C@@H]3CCC4=CC(=O)CC[C@]4(C)[C@H]3CC[C@]12C
parameter: solubility (mole fraction)
readout value: 0.0551

###

applied conditions: in toluene, 313.15 K

smiles data: CC(=O)[C@H]1CC[C@H]2[C@@H]3CCC4=CC(=O)CC[C@]4(C)[C@H]3CC[C@]12C
solubility (mole fraction): 0.182

###

applied conditions: in n-propanol, 303.15 K

smiles data: CC(=O)[C@H]1CC[C@H]2[C@@H]3CCC4=CC(=O)CC[C@]4(C)[C@H]3CC[C@]12C
solubility (mole fraction): 0.0227

These measurements were taken from BigSolDB 2.1.
